These data points were gathered from patent US8273773B2.

Listed next: entries and their corresponding pIC50.
Target: HCV polymerase (NS5B570n-Con1) (Hepatitis C virus genotype 1b)
Construct: contains a 21 amino acid deletion at the C-terminus relative to the full-length HCV polymerase; 6-histidine (N); made in house; host or cells: E. coli strain BL21(DE) pLysS (pET17b)
Experiment: biochemical
Set-up: species or system HCV Con1 strain
Settings: IC50 HCV NS5B RNA Polymerase Assay, values without asterisk; 20 nM NS5B570n-Con1 enzyme, 20 nM cIRES RNA template
// scale note: pIC50 = -log10(conc_M); give the bare number

The following compounds have reported results that may help.
CC(C)(C)c1cc(CCc2ccc(NS(C)(=O)=O)cc2)c(C#N)c(-c2ccc[nH]c2=O)c1 [I-87]    7.89
CCc1cc(C(C)(C)C)cc(-c2ccc[nH]c2=O)c1O [I-14]    6.48
CC(=O)Nc1ccc(CCc2cc(-c3ccc[nH]c3=O)cc(C(C)(C)C)c2)cc1 [I-83]    6.90
COc1c(NC(=O)c2ccc(NC(C)=O)cc2)cc(-c2ccc[nH]c2=O)cc1C(C)(C)C [I-277]    6.45
COc1c(C(=O)Nc2cccc(NS(C)(=O)=O)c2)cc(-c2ccc[nH]c2=O)cc1C(C)(C)C [I-259]    6.91
COc1ccc(-c2ccc[nH]c2=O)cc1C(C)(C)OC [I-62]    5.38
CC(C)(C)c1cc(Cc2ccccc2)cc(-c2ccc[nH]c2=O)c1 [I-46]    6.27
COc1c(/C=C(\C#N)c2ccc(NS(C)(=O)=O)cc2)cc(-c2ccc[nH]c2=O)cc1C(C)(C)C [I-138]    8.00
COc1c(CCc2ccc(NS(C)(=O)=O)cc2C)cc(-c2ccc[nH]c2=O)cc1C(C)(C)C [I-109]    8.15
COCCCS(=O)(=O)Nc1ccc(/C=C/c2cc(-c3cc(F)c[nH]c3=O)cc(C(C)(C)C)c2OC)cc1 [I-156]    8.22

Req: Value lookup for pIC50; key = COCCNc1ccc(C(=O)Nc2cc(-c3ccc[nH]c3=O)cc(C(C)(C)C)c2OC)cn1 [I-254]
Resp: 6.85

Req: Value lookup for pIC50; key = COc1c(NC(=O)c2ccc(N)cc2)cc(-c2ccc[nH]c2=O)cc1C(C)(C)C [I-72]
Resp: 7.47

====

Listed next: entries and their corresponding pIC50.
Target: HCV polymerase (NS5B570n-Con1) (Hepatitis C virus genotype 1b, UniProt Q9WMX2);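 further: recombinant His-tagged enzyme from E. coli, radiolabeled nucleotide incorporation into acid-insoluble RNA read by scintillation after filtration, no-enzyme background subtracted, activity relative to positive control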
Construct: contains a 21 amino acid deletion at the C-terminus relative to the full-length HCV polymerase; 6-histidine (N); made in house; host or cells: E. coli strain BL21(DE) pLysS (pET17b)
Assay: biochemical
Design: species or system HCV Con1 strain
Conditions: IC50 HCV NS5B RNA Polymerase Assay, values without asterisk; 20 nM NS5B570n-Con1 enzyme, 20 nM cIRES RNA template
// scale note: pIC50 = -log10(conc_M); give the bare number

COc1c(/C=C/c2ccc(NS(=O)(=O)CC3CC3)cc2)cc(-c2cc(F)c[nH]c2=O)cc1C(C)(C)C    8.10
COc1c(/C=C/c2ccc(NS(C)(=O)=O)cn2)cc(-c2cc(F)c[nH]c2=O)cc1C(C)(C)C    8.22
CC(C)(C)c1cc(CCc2ccc(NS(C)(=O)=O)cc2)c(OCCO)c(-c2ccc[nH]c2=O)c1    7.82
COc1ccc(-c2ccc[nH]c2=O)c(F)c1C(C)(C)C    6.87

Req: Value lookup for pIC50; key = COc1c(C(=O)NCc2ccc(N(C)C)cc2)cc(-c2ccc[nH]c2=O)cc1C(C)(C)C
Resp: 5.80

Req: Value lookup for pIC50; key = COc1c(NC(=O)c2ccc(NS(C)(=O)=O)cc2)cc(-c2cc(F)c[nH]c2=O)cc1C(C)(C)C
Resp: 7.66

Req: Value lookup for pIC50; key = COc1c(C(=O)c2sccc2C)cc(-c2ccc[nH]c2=O)cc1C(C)(C)C
Resp: 7.21

Req: Value lookup for pIC50; key = COc1c(CC(CN(C)C)c2ccc(NS(C)(=O)=O)cc2)cc(-c2ccc[nH]c2=O)cc1C(C)(C)C (centres unmarked)
Resp: 7.55

Req: Value lookup for pIC50; key = COc1c(C(=O)c2cccc(O)c2)cc(-c2ccc[nH]c2=O)cc1C(C)(C)C
Resp: 8.05

Req: Value lookup for pIC50; key = CCOc1ccc(-c2ccc[nH]c2=O)cc1C(C)(C)C
Resp: 5.33

Req: Value lookup for pIC50; key = COc1c(NC(=O)c2ccc(N)cc2F)cc(-c2ccc[nH]c2=O)cc1C(C)(C)C
Resp: 8.00

Req: Value lookup for pIC50; key = COc1c(CC(C(=O)O)c2ccc(NS(C)(=O)=O)cc2)cc(-c2ccc[nH]c2=O)cc1C(C)(C)C (centres unmarked)
Resp: 8.10

Req: Value lookup for pIC50; key = Cc1cc(-c2cc(F)c[nH]c2=O)cc(C(C)(C)C)c1
Resp: 5.71

Req: Value lookup for pIC50; key = COc1c(CC(C(N)=O)c2ccc(NS(C)(=O)=O)cc2)cc(-c2ccc[nH]c2=O)cc1C(C)(C)C (centres unmarked)
Resp: 7.82
